Molecular target: T1, CEACAM5 (R&D Systems, 4128-CM-050) (human, UniProt P06731 35-685)
T1 construct: Immobilised on the ELISA plate; also called human CEACAM5
T1 sequence (looked up): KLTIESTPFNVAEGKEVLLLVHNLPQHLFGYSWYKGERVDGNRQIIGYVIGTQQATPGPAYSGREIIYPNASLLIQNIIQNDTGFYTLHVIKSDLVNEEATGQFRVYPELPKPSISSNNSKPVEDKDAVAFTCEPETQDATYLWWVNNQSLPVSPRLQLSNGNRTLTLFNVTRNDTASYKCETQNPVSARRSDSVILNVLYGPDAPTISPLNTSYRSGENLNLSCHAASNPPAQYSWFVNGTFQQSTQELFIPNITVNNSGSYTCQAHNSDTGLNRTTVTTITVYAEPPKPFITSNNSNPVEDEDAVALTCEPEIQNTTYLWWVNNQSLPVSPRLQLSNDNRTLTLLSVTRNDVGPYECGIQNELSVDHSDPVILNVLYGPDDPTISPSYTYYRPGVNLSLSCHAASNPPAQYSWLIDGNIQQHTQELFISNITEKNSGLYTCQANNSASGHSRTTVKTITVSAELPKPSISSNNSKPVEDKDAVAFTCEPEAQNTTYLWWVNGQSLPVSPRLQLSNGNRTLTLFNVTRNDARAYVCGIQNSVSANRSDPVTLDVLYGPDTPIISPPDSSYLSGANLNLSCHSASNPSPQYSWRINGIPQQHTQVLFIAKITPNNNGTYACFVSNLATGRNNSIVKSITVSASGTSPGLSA
Test: ELISA on immobilised CEACAM5, 4-parameter fit, duplicate
measure: EC50 (pM)
Kindly provide the numeric value in pM only, without the unit symbol.

Ask | Item under review: (Y-S1-X)p-Fab^2 with Y Gd/DOTA, S1 - (bond), X -Met-Ile-NH-(CH2)2-Z1(#S)- (Fab, V domains shown, labeling may sit on this chain; sites not stated; labeling portion (MW 1027) on amino groups of the Fab, sites and chain not stated; 1-2 per Fab by MS, also called Ex-No 8; conjugate 8) VH: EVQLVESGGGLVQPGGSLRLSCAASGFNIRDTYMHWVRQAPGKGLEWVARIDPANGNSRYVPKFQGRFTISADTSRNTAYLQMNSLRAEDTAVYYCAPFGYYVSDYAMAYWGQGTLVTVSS VL: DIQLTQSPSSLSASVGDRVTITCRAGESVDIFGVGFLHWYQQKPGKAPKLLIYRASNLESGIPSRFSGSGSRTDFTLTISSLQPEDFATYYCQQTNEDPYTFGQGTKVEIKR . Reported EC50?
Reply | 110
